- Tested on: Opioid receptors; mu/kappa/delta
- assay.info: Compound was tested for irreversible antagonist activity against opioid receptor in mouse vas deferens expressed as IC50 of DADLE divided by the compound
- Assay type: functional, tissue-based
reported.endpoint: Ratio
No unit in the answer, only the number.

Problem: What Ratio appears in the records for this compound with Opioid receptors; mu/kappa/delta? CCOC(=O)/C=C/C(=O)N[C@@H]1CC[C@@]2(O)C3Cc4ccc(O)c5c4C2(CCN3CC2CC2)[C@H]1O5 (stereo not given in full)
Result: 1.24

Problem: What do you get for CCCCOC(=O)/C=C/C(=O)N[C@@H]1CC[C@@]2(O)C3Cc4ccc(O)c5c4C2(CCN3CC2CC2)[C@H]1O5 (stereo not given in full) ?
Result: 1.75

Problem: What do you get for O=C(/C=C/C(=O)OCCc1ccccc1)N[C@@H]1CC[C@@]2(O)C3Cc4ccc(O)c5c4C2(CCN3CC2CC2)[C@H]1O5 (stereo not given in full) ?
Result: 3.73

Problem: What do you get for CCCOC(=O)/C=C/C(=O)N[C@@H]1CC[C@@]2(O)C3Cc4ccc(O)c5c4C2(CCN3CC2CC2)[C@H]1O5 (stereo not given in full) ?
Result: 1.52

Problem: What do you get for O=C(/C=C/C(=O)OCc1ccccc1)N[C@@H]1CC[C@@]2(O)C3Cc4ccc(O)c5c4C2(CCN3CC2CC2)[C@H]1O5 (stereo not given in full) ?
Result: 1.39

Ref: ChEMBL document CHEMBL1123494
